- MEASUREMENT_NOTES: Multiple-dose PK, 2-hour SC infusion once daily for 14 days, Japanese prostate cancer patients
- Type: in vivo, human
- STATED_CONDITIONS: male, human, in vivo, sc, 1 mg/day, Japanese prostate cancer patients, 2-hour SC infusion 1.0 mg/day, Day 1, mean; read-out: AUC (0-tau)
Where a SMILES comes first, the peptide text is derived from it. [ ]: non-standard residue; d: D form. Arg(Me) = CNC(=N)NCCC[C@H](N)C(=O)O; Hyp = O=C(O)[C@@H]1C[C@@H](O)CN1; azaGly = NNC(=O)O
QUANTITY_KIND: AUC (ng·h/mL)
Numbers only, in ng·h/mL.

Task: Query (compound): CC(=O)O.CNC(=N)NCCC[C@H](NC(=O)[C@H](CC(C)C)NC(=O)NNC(=O)[C@H](Cc1ccccc1)NC(=O)[C@@H](NC(=O)[C@H](CC(N)=O)NC(=O)[C@@H]1C[C@@H](O)CN1C(=O)[C@@H](Cc1ccc(O)cc1)NC(C)=O)[C@@H](C)O)C(=O)N[C@@H](Cc1c[nH]c2ccccc12)C(N)=O [API-MA] (Ac-[dY][Hyp]NTF[azaGly]L[Arg(Me)]W-NH2) ; field requested: AUC
Output: 70.2
